Below: a set of entries, each annotated with reported koff.
Biological target: T1, Full-length human NT5E (recombinant, in-house) (human, UniProt P21589 27-549)
T1 construct: also called hNT5E; hNT5EWT
T1 sequence: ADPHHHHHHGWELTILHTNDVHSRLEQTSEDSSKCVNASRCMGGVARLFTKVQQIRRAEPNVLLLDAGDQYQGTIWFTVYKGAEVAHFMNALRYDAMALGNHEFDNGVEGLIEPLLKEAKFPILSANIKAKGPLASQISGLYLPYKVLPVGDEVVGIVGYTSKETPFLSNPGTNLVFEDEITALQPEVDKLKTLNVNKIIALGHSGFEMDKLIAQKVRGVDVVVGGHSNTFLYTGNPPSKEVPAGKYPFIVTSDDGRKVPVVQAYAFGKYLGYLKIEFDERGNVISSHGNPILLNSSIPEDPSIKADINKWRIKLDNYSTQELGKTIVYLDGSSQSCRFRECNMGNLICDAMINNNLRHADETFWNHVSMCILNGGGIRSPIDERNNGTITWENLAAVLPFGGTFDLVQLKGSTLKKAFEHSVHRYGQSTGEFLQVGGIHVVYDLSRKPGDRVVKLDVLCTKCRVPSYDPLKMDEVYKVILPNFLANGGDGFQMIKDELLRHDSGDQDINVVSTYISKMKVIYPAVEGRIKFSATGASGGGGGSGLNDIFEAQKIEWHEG
Test: SPR, His-captured NT5E, no ATP
Experimental: All SPR experiments were performed at 25° C. using MASS-1 (Bruker) instrument. hNT5E, mNT5E and cNT5E were immobilized onto a nitrilotriacetic acid (NTA) sensor chip via His-tag. For kinetic experiments, after ligand immobilization, 2-fold serial dilutions of the Fabs were injected. After double-reference subtraction data were analyzed with BiaEvaluation (GE Healthcare) or Sierra Analyser (Bruker) software. […]

Sample answers from the record:
1789 AM39 Fab (Fab, V domains shown) VH: EVQLVESGGGLVQPGGSLRLSCAASGFNVSYSSIHWVRQAPGKGLEWVASIRGAGSDTRYADSVKGRFTISADTSKNTAYLQMNSLRAEDTAVYYCARNYWGWYPFYYFAFDYWGQGTLVTV VL: DIQMTQSPSSLSASVGDRVTITCRASQSVSSAVAWYQQKPGKAPKLLIYSASSLYSGVPSRFSGSRSGTDFTLTISSLQPEDFATYYCQQGWDYPITFGQGTKVEIKR; 0.0099 s⁻¹
1789 AM32 Fab (Fab, V domains shown, also called Fab32) VH: EVQLVESGGGLVQPGGSLRLSCAASGFNVSYSSIHWVRQAPGKGLEWVARIRGNEGDTYYADSVKGRFTISADTSKNTAYLQMNSLRAEDTAVYYCARNYWGWYPFYYFAFDYWGQGTLVTV VL: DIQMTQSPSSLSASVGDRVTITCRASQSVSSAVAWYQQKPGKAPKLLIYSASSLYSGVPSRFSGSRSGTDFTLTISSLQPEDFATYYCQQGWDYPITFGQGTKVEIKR; 0.0091 s⁻¹

// next entry
# koff of 1789 AM42 Fab (Fab, V domains shown) VH: EVQLVESGGGLVQPGGSLRLSCAASGFNVSYSSIHWVRQAPGKGLEWVAKIRGGHQDTHYADSVKGRFTISADTSKNTAYLQMNSLRAEDTAVYYCARNYWGWYPFYYFAFDYWGQGTLVTV VL: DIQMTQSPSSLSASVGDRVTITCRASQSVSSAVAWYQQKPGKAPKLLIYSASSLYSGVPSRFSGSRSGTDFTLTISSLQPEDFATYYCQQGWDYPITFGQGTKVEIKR = 0.0067 s⁻¹
